- Experimental target: Protein arginine N-methyltransferase 1 (Homo sapiens)
- Procedure text: Inhibition of human PRMT1 using H4-21peptide as substrate at 10 uM incubated for 10 mins by fluorescence based analysis relative to control
- Sequence (Q99873 whole entry, looked up): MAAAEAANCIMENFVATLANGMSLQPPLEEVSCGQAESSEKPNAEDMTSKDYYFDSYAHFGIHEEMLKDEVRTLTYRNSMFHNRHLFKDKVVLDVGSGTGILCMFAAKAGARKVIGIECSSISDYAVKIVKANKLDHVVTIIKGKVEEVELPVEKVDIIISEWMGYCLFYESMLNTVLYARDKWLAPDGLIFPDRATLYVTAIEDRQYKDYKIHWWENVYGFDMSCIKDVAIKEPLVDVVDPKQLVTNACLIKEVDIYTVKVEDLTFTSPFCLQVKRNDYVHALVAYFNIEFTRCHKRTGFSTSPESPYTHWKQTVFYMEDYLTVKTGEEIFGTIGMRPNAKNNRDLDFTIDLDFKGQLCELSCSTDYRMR
inhibition listing for selected compounds.
Measurement type: inhibition

chem_smiles=Nc1cccc(-c2ccc(CNC(=O)NCCSC[C@H]3O[C@@H](n4cnc5c(N)ncnc54)[C@H](O)[C@@H]3O)cc2)c1 observed_value="< 50%"
chem_smiles=N=C(NCCSC[C@H]1O[C@@H](n2cnc3c(N)ncnc32)[C@H](O)[C@@H]1O)Nc1cccc(-c2ccoc2)c1 observed_value="> 50%"
chem_smiles=N=C(NCCCSC[C@H]1O[C@@H](n2cnc3c(N)ncnc32)[C@H](O)[C@@H]1O)Nc1cccc(-c2cncnc2)c1 observed_value="> 50%"
chem_smiles=Nc1ncnc2c1ncn2[C@@H]1O[C@H](CSCCNC(=O)Nc2ccc(F)cc2)[C@@H](O)[C@H]1O observed_value="< 50%"
chem_smiles=N=C(NCCSC[C@H]1O[C@@H](n2cnc3c(N)ncnc32)[C@H](O)[C@@H]1O)Nc1cccc(I)c1 observed_value="> 50%"

----------
- Experimental target: UniProt:O60678
- Sequence (O60678 whole entry): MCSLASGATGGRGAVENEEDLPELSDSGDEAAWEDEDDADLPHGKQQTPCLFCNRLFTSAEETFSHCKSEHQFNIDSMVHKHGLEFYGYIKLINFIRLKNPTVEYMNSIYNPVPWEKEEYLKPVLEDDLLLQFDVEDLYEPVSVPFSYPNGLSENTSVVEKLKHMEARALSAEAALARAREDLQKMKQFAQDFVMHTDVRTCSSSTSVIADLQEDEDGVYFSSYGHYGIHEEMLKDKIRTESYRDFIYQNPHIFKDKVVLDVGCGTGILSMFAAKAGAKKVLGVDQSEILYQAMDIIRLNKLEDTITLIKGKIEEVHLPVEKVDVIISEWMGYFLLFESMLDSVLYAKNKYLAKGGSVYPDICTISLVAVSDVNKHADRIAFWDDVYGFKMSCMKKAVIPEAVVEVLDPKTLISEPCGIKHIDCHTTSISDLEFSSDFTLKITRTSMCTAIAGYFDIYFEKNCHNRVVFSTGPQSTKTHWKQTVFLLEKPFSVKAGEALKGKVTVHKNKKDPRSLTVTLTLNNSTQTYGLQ
- Procedure text: Inhibition of PRMT3 (unknown origin)
Measurement type: IC50 (nM)

molecule=N=C(NCCSC[C@H]1O[C@@H](n2cnc3c(N)ncnc32)[C@H](O)[C@@H]1O)Nc1ccccc1Br experimental_target=UniProt:O60678 measurement_type=IC50 relational_operator== observed_value=321
molecule="Nc1nc2cc(CC[C@H]3C[C@@H](n4ccc5c(N)ncnc54)[C@H](O)[C@@H]3O)ccc2cc1Br [ONAMETOSTAT]" experimental_target=UniProt:O60678 measurement_type=IC50 relational_operator=> observed_value=10000

----------
- Experimental target: Histone-arginine methyltransferase CARM1 (Homo sapiens, UniProt Q86X55)
- Sequence (Q86X55 whole entry): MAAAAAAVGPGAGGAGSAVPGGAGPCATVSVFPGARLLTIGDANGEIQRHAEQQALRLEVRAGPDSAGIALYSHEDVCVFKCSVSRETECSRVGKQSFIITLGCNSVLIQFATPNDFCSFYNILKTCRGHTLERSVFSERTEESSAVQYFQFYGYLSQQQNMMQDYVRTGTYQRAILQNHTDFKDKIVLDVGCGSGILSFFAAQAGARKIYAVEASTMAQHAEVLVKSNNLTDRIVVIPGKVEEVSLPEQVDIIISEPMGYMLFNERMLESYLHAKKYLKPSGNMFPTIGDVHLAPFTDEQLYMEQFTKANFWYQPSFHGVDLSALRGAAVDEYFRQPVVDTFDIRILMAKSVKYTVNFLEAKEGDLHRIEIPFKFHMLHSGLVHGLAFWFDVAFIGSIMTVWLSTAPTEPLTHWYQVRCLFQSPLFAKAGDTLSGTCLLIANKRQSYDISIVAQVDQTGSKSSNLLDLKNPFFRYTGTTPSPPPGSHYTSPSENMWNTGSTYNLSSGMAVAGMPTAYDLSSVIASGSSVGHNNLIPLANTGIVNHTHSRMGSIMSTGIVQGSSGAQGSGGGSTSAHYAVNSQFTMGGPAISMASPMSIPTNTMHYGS
- Procedure text: Inhibition of PRMT4 in human MDA-MB-231 cells assessed as decrease in PABP1 methylation level incubated for 24 hrs by Western blot analysis
- Type: cell-based
pIC50: −log10 of the molar value.
Measurement type: pIC50

chem_smiles=CC1=C(C)C(=O)C(C(C)(C)CC(=O)N(CCSC[C@H]2O[C@@H](n3cnc4c(N)ncnc43)[C@H](O)[C@@H]2O)Cc2cccc(Br)c2)=C(C)C1=O observed_value=7.51

----------
- Experimental target: Protein arginine N-methyltransferase 8 (Homo sapiens, UniProt Q9NR22)
- Sequence (Q9NR22 whole entry): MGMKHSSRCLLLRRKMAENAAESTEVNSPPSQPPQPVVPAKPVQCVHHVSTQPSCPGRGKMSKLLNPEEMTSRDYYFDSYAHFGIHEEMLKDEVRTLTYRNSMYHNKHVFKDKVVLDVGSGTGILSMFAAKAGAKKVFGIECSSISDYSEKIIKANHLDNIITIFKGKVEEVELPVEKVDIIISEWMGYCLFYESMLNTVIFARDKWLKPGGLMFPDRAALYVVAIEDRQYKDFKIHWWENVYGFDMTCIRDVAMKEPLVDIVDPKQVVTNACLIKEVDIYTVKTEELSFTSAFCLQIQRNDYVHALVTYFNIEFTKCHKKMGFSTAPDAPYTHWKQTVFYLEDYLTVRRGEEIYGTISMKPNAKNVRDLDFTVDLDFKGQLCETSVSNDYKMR
- Procedure text: Inhibition of PRMT8 (unknown origin)
Measurement type: IC50 (µM)

compound=N=C(NCCSC[C@H]1O[C@@H](n2cnc3c(N)ncnc32)[C@H](O)[C@@H]1O)Nc1ccccc1Br measurement_type=IC50 relational_operator== observed_value=0.0321
compound="Nc1nc2cc(CC[C@H]3C[C@@H](n4ccc5c(N)ncnc54)[C@H](O)[C@@H]3O)ccc2cc1Br [ONAMETOSTAT]" measurement_type=IC50 relational_operator=> observed_value=10

----------
- Experimental target: UniProt Q99873
- Procedure text: Inhibition of PRMT1 (unknown origin) incubated for 1 hr in presence of 3H-SAM by topcount plate reader analysis
- Sequence (Q99873 whole entry): as the sequence (Q99873 whole entry, looked up) above
Measurement type: IC50 (µM)

chem_smiles=Nc1ncnc2c1ncn2[C@@H]1O[C@H](CSCCCCNCc2cccc(-c3ccc(Cl)cc3)c2)[C@@H](O)[C@H]1O experimental_target="UniProt Q99873" observed_value=1.2

----------
IC50 listing for selected compounds.
- Experimental target: Histone-arginine methyltransferase CARM1 (Homo sapiens)
- Procedure text: Inhibition of PRMT4 (unknown origin)
Measurement type: IC50

chem_smiles=N=C(NCCSC[C@H]1O[C@@H](n2cnc3c(N)ncnc32)[C@H](O)[C@@H]1O)Nc1ccccc1Br experimental_target="Histone-arginine methyltransferase CARM1 (Homo sapiens)" measurement_type=IC50 observed_value="5.05 nM"
chem_smiles=Nc1nc2cc(CC[C@H]3C[C@@H](n4ccc5c(N)ncnc54)[C@H](O)[C@@H]3O)ccc2cc1Br experimental_target="Histone-arginine methyltransferase CARM1 (Homo sapiens)" measurement_type=IC50 observed_value="> 10000 nM"
